study-target: lipoxygenase (Rattus norvegicus, UniProt P12527)
Construct: release of LTB4 from neutrophilic granulocytes (PMN) of the rat; endogenous in cells; host or cells: rat neutrophilic granulocytes (PMN)
Sequence (P12527 whole entry): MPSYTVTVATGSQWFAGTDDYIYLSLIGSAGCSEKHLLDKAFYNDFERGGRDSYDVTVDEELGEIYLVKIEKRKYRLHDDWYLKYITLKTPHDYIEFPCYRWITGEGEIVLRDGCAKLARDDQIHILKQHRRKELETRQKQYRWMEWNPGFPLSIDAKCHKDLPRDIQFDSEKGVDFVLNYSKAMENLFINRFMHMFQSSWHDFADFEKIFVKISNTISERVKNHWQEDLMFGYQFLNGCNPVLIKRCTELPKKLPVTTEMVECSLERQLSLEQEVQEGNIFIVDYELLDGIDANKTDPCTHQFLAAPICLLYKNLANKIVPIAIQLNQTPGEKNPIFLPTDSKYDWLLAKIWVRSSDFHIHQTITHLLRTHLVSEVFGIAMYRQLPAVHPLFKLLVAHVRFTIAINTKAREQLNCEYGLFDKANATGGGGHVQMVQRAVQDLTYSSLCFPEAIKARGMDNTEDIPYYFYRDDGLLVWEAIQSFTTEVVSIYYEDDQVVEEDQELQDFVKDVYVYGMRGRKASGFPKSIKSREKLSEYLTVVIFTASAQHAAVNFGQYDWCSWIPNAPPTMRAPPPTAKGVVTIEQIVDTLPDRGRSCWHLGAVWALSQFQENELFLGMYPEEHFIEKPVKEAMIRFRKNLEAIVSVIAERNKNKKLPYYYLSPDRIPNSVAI
protocol-details: inhibition of arachidonic acid metabolism via the lipoxygenase route: LTB4 release from PMN of the rat after stimulation with Ca ionophor, reverse phase HPLC
Format: cell-based
stated-conditions: 1 × 10^-5 mol/l; LTB4 release from rat PMN, Ca ionophor; read-out: % inhibition of lipoxygenase at 1 × 10^-5 mol/l
readout-label: inhibition at 10 µM (%)

molecule	inhibition at 10 µM (%)
COCCOC1=CC(=O)c2ccccc2C1=O [Compound 3]	100
CNC(=O)CSC1=C(C)C(=O)c2ccccc2C1=O [Compound 9]	100
CC1=C(SCC(=O)O)C(=O)c2ccccc2C1=O [Compound 8]	100

Where do the numbers come from? From patent US4628062A.
